ASSAYED TARGET: FimH-CRD (Escherichia coli)
Construct: The first 177 amino acids of the FimH protein; thrombin tag (printed as 'fusion protein with thrombin') (cleaved yes); made in house; host or cells: bacteria (pET21b plasmid)
EXPERIMENT NOTES: Competitive binding assay by fluorescence polarization, assay 1 (compounds prepared by manual serial dilution)
MEASURE NAME: log10 of Kd (log10 of the value in nM)
Note: values are log10 of Kd expressed in nM.

Request: Fill in reported log10 of Kd for this entry: CNC(=O)c1cccc(COc2ccc(C3O[C@H](CO)[C@@H](O)[C@H](O)[C@@H]3O)cc2)c1 (some centres unmarked) [Compound 248]
Response: 1.15

Request: Kindly indicate its recorded log10 of Kd. Item: OC[C@H]1O[C@H](c2cccc(Oc3ccc(F)cc3)c2)[C@@H](O)[C@@H](O)[C@@H]1O [Compound 57]
Response: 1.12

Request: State its log10 of Kd: CC(C)C(=O)Nc1ccc(Oc2cccc([C@H]3O[C@H](CO)[C@@H](O)[C@H](O[C@H]4O[C@H](CO)[C@@H](O)[C@H](O)[C@@H]4O)[C@@H]3O)c2)cc1 [Compound 273]
Response: 1.08

Request: Using the record for O=C(Nc1cccnc1)c1cccc([C@H]2O[C@H](CO)[C@@H](O)[C@H](O)[C@@H]2O)c1 [Compound 29] , state its measured log10 of Kd.
Response: 1.26

Request: Could you please provide reported log10 of Kd for CC(=O)Nc1cccc(-c2cccc([C@H]3O[C@H](CO)[C@@H](O)[C@H](O)[C@@H]3O)c2)c1 [Compound 7] ? Thanks!
Response: 1.16

Request: Name the recorded log10 of Kd of the item CNC(=O)c1cc(C(=O)NC)cc(-c2ccccc2[C@H]2O[C@H](CO)[C@@H](O)[C@H](O)[C@@H]2O)c1 [Compound 40] in your answer.
Response: 2.68

Request: Tell me log10 of Kd reported for Cc1cc(NC(=O)c2cccc([C@H]3O[C@H](CO)[C@@H](O)[C@H](O)[C@@H]3O)c2)n(Cc2ccccc2)n1 [Compound 24]
Response: 1.75

Request: Please report the measured log10 of Kd for OC[C@H]1O[C@H](c2cccc(-c3ccc4c(c3)OCO4)c2)[C@@H](O)[C@@H](O)[C@@H]1O [Compound 11]
Response: 1.08

Request: Note log10 of Kd for the molecule shown: OC[C@H]1O[C@H](O[C@@H]2[C@H](O)[C@@H](c3cccc(O)c3)O[C@H](CO)[C@H]2O)[C@@H](O)[C@@H](O)[C@@H]1O [Compound 265]
Response: 1.72

Request: Tell me its log10 of Kd given Cc1cnc(NC(=O)c2cccc([C@H]3O[C@H](CO)[C@@H](O)[C@H](O)[C@@H]3O)c2)s1 [Compound 28] as the entry.
Response: 1.22

Request: Please supply the value of reported log10 of Kd for the item OC[C@H]1O[C@H](c2ccc(Cl)c(O)c2)[C@@H](O)[C@@H](O)[C@@H]1O [Compound 67]
Response: 1.32

====

ASSAYED TARGET: FimH-CRD (Escherichia coli, UniProt P08191)
Construct: The first 177 amino acids of the FimH protein; thrombin tag (printed as 'fusion protein with thrombin') (cleaved yes); made in house; host or cells: bacteria (pET21b plasmid)
Sequence (P08191 22-177): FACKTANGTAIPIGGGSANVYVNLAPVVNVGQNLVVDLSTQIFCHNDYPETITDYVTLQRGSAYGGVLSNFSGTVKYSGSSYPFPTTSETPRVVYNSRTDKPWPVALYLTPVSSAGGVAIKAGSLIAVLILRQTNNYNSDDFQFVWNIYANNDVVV
EXPERIMENT NOTES: Competitive binding assay by fluorescence polarization, assay 1 (compounds prepared by manual serial dilution)
MEASURE NAME: Kd
Answer format reminder: number followed by unit.

The examples below pair each entry with its known result.
{"STRUCTURE AS SMILES": "O=C(Nc1ccc2ncccc2c1)c1cccc([C@H]2O[C@H](CO)[C@@H](O)[C@H](O)[C@@H]2O)c1", "Kd": "16.8 nM"}
{"STRUCTURE AS SMILES": "COC(=O)Cc1ccc(Oc2ccc([C@H]3O[C@H](CO)[C@@H](O)[C@H](O)[C@@H]3O)cc2)cc1", "Kd": "6.3 nM"}
{"STRUCTURE AS SMILES": "Cc1cc(C)cc(Oc2cccc([C@H]3O[C@H](CO)[C@@H](O)[C@H](O)[C@@H]3O)c2)c1", "Kd": "11.1 nM"}

Now consider a different compound.
Request: Give reported Kd for CNC(=O)c1ccc2nc(Oc3cccc([C@H]4O[C@H](CO)[C@@H](O)[C@H](O)[C@@H]4O)c3)sc2c1 (FimH-CRD (Escherichia coli, UniProt P08191))
Response: 8.7 nM
